// reported MIC per item
Tested on: S. aureus
Assay type: cell-based
Protocol conditions: S. aureus SA014

| Polymer sequence | Units of measure | MIC |
| --- | --- | --- |
| ILRWWVWWVWWRRK [MBI 11F6CN] | µg/mL | 16 |
| IARWPWWPWRRK [MBI 11H02CN] | µg/mL | 2 |
| ILRRWVWWVWRRK [MBI 11F5CN] | µg/mL | 4 |
| ILRWPWWAWRRK [MBI 11H08CN] | µg/mL | 4 |
| ILRWPWWPWARK [MBI 11H10CN] | µg/mL | 4 |
| ILRWPWWPWRAK [MBI 11H11CN] | µg/mL | 4 |
| CLRWPWWPWRRK [MBI 11D19CN] | µg/mL | 4 |
| ILRWPWWPARRK [MBI 11H09CN] | µg/mL | 8 |
| ILRAPWWPWRRK [MBI 11H04CN] | µg/mL | 4 |
| ILRWPWRRWPWRRK [MBI 11B19CN] | µg/mL | 4 |
| ILKKWPWWPWRRK [MBI 11ACN] | µg/mL | 8 |
| ILRWPWAPWRRK [MBI 11H07CN] | µg/mL | 8 |
| ILRWPAWPWRRK [MBI 11H06CN] | µg/mL | 8 |
| WRWWKPKWRWPKW [MBI 11J02CN] | µg/mL | 2 |

----------
System: microorganisms with acquired resistance
Assay notes: microbe, parasite or virus in culture
Format: cell-based
Protocol conditions: peptide + Piperacillin; H. influenzae 1
// reported FIC per item
Value type: FIC

| Polymer sequence | Study system | Value type | Result |
| --- | --- | --- | --- |
| ILRWPWWPWRRK [MBI 11B7CN] | microorganisms with acquired resistance | FIC | 0.13 |
| KWKSFIKKLTSAAKKVVTTAKPLISS [MBI 26] | microorganisms with acquired resistance | FIC | 0.19 |
| ILKKWPWWPWRR [MBI 11G7CN] | microorganisms with acquired resistance | FIC | 0.75 |
| ILRWVWWVWRRK [MBI 11F4CN] | microorganisms with acquired resistance | FIC | 0.75 |
| ILKKWPWWPWRRK [MBI 11E3CN] | microorganisms with acquired resistance | FIC | 0.38 |
| KKWWRRALQGLKTAGPAIQSVLNK [MBI 21A2] | microorganisms with acquired resistance | FIC | 0.31 |

----------
System: S. epidermidis
Assay type: cell-based
Protocol conditions: S. epidermidis strain SE010
Value type: log10 of MIC (log10 of the value in µg/mL)

| Polymer sequence | Study system | Readout number |
| --- | --- | --- |
| WWRWPWWPWRRK [MBI 11A10CN] | S. epidermidis | 0.60 |
| ILRWPWWPWRRKMILKKAGS [MBI 11B17CN] | S. epidermidis | 0.60 |
| ILRWPWWPWWPWRRK [MBI 11A9CN] | S. epidermidis | 0.60 |
| ILRWVWWVWRRK [MBI 11F4CN] | S. epidermidis | 0.30 |
| ILKKWPWW PWKKK [MBI 11B10CN] | S. epidermidis | 0.60 |
| ILKKFPFWPWRRK [MBI 11A7CN] | S. epidermidis | 0.60 |
| ILRNPNNPNRRK [MBI 11B7ACN] | S. epidermidis | 0.60 |
| ILRWPWWPWRRKIMILKKAGS [MBI 11B16CN] | S. epidermidis | 0.60 |
| ILKKFPWFPWRRK [MBI 11A6CN] | S. epidermidis | 0.60 |
| ILKKWWWPWRRK [MBI 11G4CN] | S. epidermidis | 0.30 |
| ILKKWPWWPWRRIMILKKAGS [MBI 11D6CN] | S. epidermidis | 0.60 |
| ILRWPWWPWRRKDMILKKAGS [MBI 11B18CN] | S. epidermidis | 0.60 |
| ILRRNPNNPNRRK [MBI 11B1CNW1] | S. epidermidis | 0.90 |
| ILKKWPWWPWRK [MBI 11B4CN] | S. epidermidis | 0.60 |
| ILKKNPNNPRRK [MBI 11G6ACN] | S. epidermidis | 1.51 |
| ILKKWPWWPWRRK [MBI 11E2CN] | S. epidermidis | 0.60 |
| KRRWPWWPWRLI [MBI 11B7CNR] | S. epidermidis | 0.60 |
| LKKWPWWPWRRK [MBI 11D1CN] | S. epidermidis | 0.90 |
| KRRWVWWVWRLI [MBI 11F4CNR] | S. epidermidis | 0.90 |
| ILRRVJPWWPWRRR [MBI 11B9CN] | S. epidermidis | 0.30 |
| ILRYVYYVYRRK [MBI 11A8CN] | S. epidermidis | 1.20 |
| ILKKNPNNPNRK [MBI 11B4ACN] | S. epidermidis | 0.90 |
| ILKWPWWPWRK [MBI 11B5CN] | S. epidermidis | 0.00 |
